target: Muscarinic acetylcholine receptor M1 (Rattus norvegicus); assay: qHTS Assay for Antagonists of Acetylcholine Muscarinic M1 Receptor: Kinetic Measurement of Intracellular Calcium Response (AID 943); settings: M1-expressing cells, kinetic intracellular calcium fluorescence; series mostly up to 35.3 µM; further: nearly all actives have a fitted effect of over 75% in size
Inconclusive results are not listed. Active and inactive are the calls of the source. The call rests on the fitted dose curve; in most records, active means well fitted inhibition curve with a large enough effect; inconclusive means small, poorly fitted or top-dose-only effect; inactive means no such curve, though single readings can be large or run the other way.
Your answer must be one of the following: t for active, f for inactive

Here are 5 molecules together with their reported answers.
>>> category("O=C(O)CCCCCCCC(=O)O")
"f"
>>> category("Cc1ccc(=O)n(-c2ccccc2)c1")
"f"
>>> category("c1cc(CN2CCCCC2)cc(OCCCNc2nc3ccccc3s2)c1")
"t"
>>> category("Cc1scc2c1N(C(=O)CN1CCN(C)CC1)c1ccccc1NC2=O")
"t"
>>> category("CCO/C([O-])=N/c1c[n+](N2CCOCC2)no1")
"f"

Each molecule tested received a call. Report the one for CCOC(=O)c1cnc2c(cnn2CC)c1NN=C(C)C . f

// same read-out, input: Cc1nc2sccn2c(=O)c1CCN1CCC(=C(c2ccc(F)cc2)c2ccc(F)cc2)CC1 t

// same read-out, input: CN(C)CCOC(=O)COc1ccc(Cl)cc1 f

// same read-out, input: O=C(O)CP(=O)(O)O f

// same read-out, input: CCN(CC)CCNC(=O)c1ccc(NC(C)=O)cc1 f

// same read-out, input: CCC(=O)c1ccc2c(c1)N(CCCN(C)C)c1ccccc1S2 t

// same read-out, input: CC1=C(C)C(=O)C(CCCCC#CCCCC#CCO)=C(C)C1=O f

====

Recorded measurements of Z-AUC, one per entry
experiment: qHTS drug screen for cell cycle checkpoint inhibitors in PARPi-resistant BRCA-mutant ovarian cancer cell lines. (AID 1963452); details: PEO1/OlaR viability, CellTiter-Glo luminescence, 96 h; stronger effect = lower value
// return a plain number; no unit text

Some compounds with recorded Z-AUC:
>>> val("CCCN(CCC)C(=O)C(CCC(=O)O)NC(=O)c1ccccc1 (stereo unspecified)")
0.987
>>> val("CC(C)COCC(CN(Cc1ccccc1)c1ccccc1)N1CCCC1 (stereo unspecified)")
1.09
>>> val("Nc1ncn([C@@H]2O[C@H](CO)[C@@H](O)[C@H]2O)c(=O)n1")
1.1
>>> val("COc1ccc2c(c1OC)C(=O)O[C@@H]2[C@H]1c2c(cc3c(c2OC)OCO3)CCN1C")
0.757

Field request: Z-AUC | item: Cc1cc(C)c(/C=C2\C(=O)Nc3ccccc32)[nH]1 0.918

// same read-out, input: COc1ccc([C@@H]2Sc3ccccc3N(CCN(C)C)C(=O)[C@@H]2OC(C)=O)cc1 1.43

====

tested on: PAD; assay: qHTS profiling for inhibitors of Plasmodium falciparum proliferation (AID 504749);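 further: 0% = DMSO vehicle and full inhibition = artemisinin control; nearly all actives have a fitted effect of over 60% in size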; conditions: P. falciparum in erythrocytes, SYBR Green DNA, 72 h; series mostly up to 28.7 µM
Results filed as inconclusive are left out. Calls of active or inactive are those of the source. The call rests on the fitted dose curve; in most records, active means well fitted inhibition curve with a large enough effect; inconclusive means small, poorly fitted or top-dose-only effect; inactive means flat fitted curve, though single readings scatter.
Your answer must be one of the following: active, inactive

>>> category("Cc1ccc(Cl)c(Nc2ccccc2C(=O)O)c1Cl")
"inactive"
>>> category("COc1ccc([C@@H]2Sc3ccccc3N(CCN(C)C)C(=O)[C@@H]2OC(C)=O)cc1")
"inactive"
>>> category("CC(=O)Oc1cc(C(C)C)c(OCCN(C)C)cc1C")
"inactive"
>>> category("CC(C)NNC(=O)c1ccncc1")
"inactive"
>>> category("CCCCOCCOCCOCc1cc2c(cc1CCC)OCO2")
"inactive"

Each compound tested received a call. Report the one for CNC1(C)C2CCC(C2)C1(C)C (stereo unspecified) . inactive

// same read-out, input: CCCCNc1ccc(C(=O)OCCN(C)C)cc1 inactive

// same read-out, input: CN=C(NC#N)NCCSCc1nc[nH]c1C inactive

// same read-out, input: NC1=NCC2c3ccccc3Cc3ccccc3N12 (stereo unspecified) inactive

// same read-out, input: CC(C(=O)O)c1ccc(CC2CCCC2=O)cc1 (stereo unspecified) inactive

// same read-out, input: CCCCNc1c(C(=O)OCC)c(C)nc2c1cnn2CC inactive
